System: KERtr cells (Human skin keratinocyte)
Test: Keratinocyte proliferation assay
Type: cell-based
Details: Homo sapiens, Keratinocyte, 72 h, BrdU incorporation, read-out: Kera. Prolif. IC50
Quantity Measured: pIC50
One number for each entry, as −log10 of the molar value.

Below, each entry is followed by its recorded pIC50 result.
>>> data_value("CCC(CC)(c1ccc(COCC(=O)O)c(C)c1)c1ccc(OCC(O)C(C)(C)C)c(C)c1 (single isomer, unassigned)")
8.22
>>> data_value("CCC(CC)(c1ccc(OC(C)C(O)C(C)(C)C)c(C)c1)c1ccc(C(=O)OC)c(C)c1 (single isomer, unassigned) [Ex. 10Da]")
6.00
>>> data_value("CCC(CC)(c1ccc(/C=C/C(=O)N(C)C)c(C)c1)c1ccc(OCC(O)C(C)(C)C)c(C)c1 (stereo not shown)")
6.01
>>> data_value("CCC(CC)(c1ccc(OCC(=O)C(C)(C)C)c(C)c1)c1ccc(OCC(=O)C(C)(C)C)c(C)c1 [DD, reference compound]")
5.97
>>> data_value("CCC(CC)(c1ccc(OCC(O)C(C)(C)C)c(C)c1)c1ccc(C(=O)NS(C)(=O)=O)c(C)c1 (stereo not shown)")
6.43

For every record below, what is its pIC50?
1. CCC(CC)(c1ccc(OCC(=O)C(C)(C)C)c(C)c1)c1ccc(C(=O)O)c(C)c1
2. CCC(CC)(c1ccc(OCC(O)C(C)(C)C)c(C)c1)c1ccc(C(=O)O)c(Cl)c1 (racemic)

Out:
6.00
6.29

---

Test system: KERtr cells (Human skin keratinocyte)
Assay: Keratinocyte proliferation assay
Format: cell-based
Conditions: Homo sapiens, Keratinocyte, 72 h, BrdU incorporation, read-out: Kera. Prolif. IC50
Cut-off 200 nM on IC50: below means 1, at or above means 0.

Completed entries (count: 2):
>>> category("CCC(CC)(c1ccc(CCC(=O)N(C)C)c(C)c1)c1ccc(OCC(O)C(C)(C)C)c(C)c1 (centres unmarked)")
0
>>> category("CCC(CC)(c1ccc(CCC(=O)O)c(C)c1)c1ccc(OCC(=O)C(C)(C)C)c(C)c1")
1

Please look at the following molecule next.
In: Consider the molecule CCC(CC)(c1ccc(CCC(=O)N(C)C)c(C)c1)c1ccc(OCC(=O)C(C)(C)C)c(C)c1 . Is its IC50 strictly less than 200 nM?
Out: 1

---

For each entry below, report its Mouse Hypercal value.
Tested on: female DBF mice
Assay: Mouse hypercalcemia assay
Format: in vivo
Conditions: orally via gavage for 6 days; serum ionized calcium 6 hours after last dosing

Examples from the recorded data:
>>> data_value("CCC(CC)(c1ccc(OC(C)C(O)C(C)(C)C)c(C)c1)c1ccc(C(=O)N(C)CC(=O)O)c(C)c1 (single isomer, unassigned) [Ex. 52]")
">3000 µg/kg/day"
>>> data_value("CCC(CC)(c1ccc(CCC(=O)C(C)(C)C)c(C)c1)c1ccc(C(=O)O)c(C)c1 [Ex. 54]")
">3000 µg/kg/day"

Next up:
In: Sample CCC(CC)(c1ccc(OC(C)C(O)C(C)(C)C)c(C)c1)c1ccc(C(=O)N[C@H](C)C(=O)O)c(C)c1 (stereo partly drawn) [Ex. 48] — what was its Mouse Hypercal?
Out: <1000 µg/kg/day

---

I'd be grateful if you could share measured Mouse Hypercal for these entries.
Test system: female DBF mice
Assay: Mouse hypercalcemia assay
Format: in vivo
Settings: orally via gavage for 6 days; serum ionized calcium 6 hours after last dosing
Excerpt: 4. The Mouse Hypercalcemia Assay (4) Materials and Method for The Mouse Hypercalcemia Assay: […]
Numbers only, in µg/kg/day.

>>> data_value("CCC(CC)(c1ccc(OC(C)C(O)C(C)(C)C)c(C)c1)c1ccc(C(=O)O)c(C)c1 (single isomer, unassigned) [Ex. 11]")
3000

// each compound listed below needs its Mouse Hypercal
1. CCC(CC)(c1ccc(C(=O)O)cc1)c1ccc(OCC(O)C(C)(C)C)c(C)c1 (single isomer, unassigned) [Ex. 22]
2. CCC(CC)(c1ccc(OCC(O)C(C)(C)C)c(C)c1)c1ccc(C(=O)Nc2nnn[nH]2)c(C)c1 (single isomer, unassigned) [Ex. 12b]
3. CCC(CC)(c1ccc(CNCCS(C)(=O)=O)c(C)c1)c1ccc(OCC(=O)C(C)(C)C)c(C)c1
4. CCC(CC)(c1ccc(OCC(O)CO)c(C)c1)c1ccc(OCC(O)C(C)(C)C)c(C)c1 (centres unmarked) [BB, reference compound]

Out:
1000
300
3000
20

Provide each entry's Mouse Hypercal from the list below.
1. CCC(CC)(c1ccc(OC(C)C(O)C(C)(C)C)c(C)c1)c1ccc(C(=O)Nc2nnn[nH]2)c(C)c1 (single isomer, unassigned) [Ex. 30]
2. CCC(CC)(c1ccc(CC2SC(=O)NC2=O)c(C)c1)c1ccc(OCC(O)C(C)(C)C)c(C)c1 (single isomer, unassigned) [Ex. 50]

Out:
1. 1000
2. 300
